Data origin: patent US20120207760A1

- tested-on: recombinant homotrimeric HA, A/northern shoveler/California/HKWF115/07 (Influenza A virus A/northern shoveler/California/HKWF115/2007 (H6N1))
- assay-procedure: trimeric HA microarray, transfection set 2
- test-settings: remark: other sources report otherwise
Give measured Trimeric HA Binding RLU for each item. Keep answers brief.
Express it in RLU; write the number only.

Sample TCN-522 (3212_I12) (antibody, V domains shown) VH: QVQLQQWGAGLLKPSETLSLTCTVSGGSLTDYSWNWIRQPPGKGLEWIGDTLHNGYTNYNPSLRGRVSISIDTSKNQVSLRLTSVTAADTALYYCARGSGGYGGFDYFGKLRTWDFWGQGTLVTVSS VL: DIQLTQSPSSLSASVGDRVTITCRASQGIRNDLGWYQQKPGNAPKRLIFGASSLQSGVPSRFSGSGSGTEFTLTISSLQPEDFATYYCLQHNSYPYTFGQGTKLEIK — what was its Trimeric HA Binding RLU?
54400

Sample TCN-563 (5237_B21) (antibody, V domains shown) VH: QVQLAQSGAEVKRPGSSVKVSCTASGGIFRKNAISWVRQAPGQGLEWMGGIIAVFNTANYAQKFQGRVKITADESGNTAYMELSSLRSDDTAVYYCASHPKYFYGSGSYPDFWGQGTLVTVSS VL: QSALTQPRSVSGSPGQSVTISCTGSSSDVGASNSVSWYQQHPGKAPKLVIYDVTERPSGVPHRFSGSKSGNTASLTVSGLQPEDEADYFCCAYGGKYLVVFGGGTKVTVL — what was its Trimeric HA Binding RLU?
21900

Sample TCN-527 (5086_C06) (antibody, V domains shown) VH: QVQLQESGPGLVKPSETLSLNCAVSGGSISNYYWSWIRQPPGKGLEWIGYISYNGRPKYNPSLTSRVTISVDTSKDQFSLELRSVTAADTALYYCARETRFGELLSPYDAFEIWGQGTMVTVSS VL: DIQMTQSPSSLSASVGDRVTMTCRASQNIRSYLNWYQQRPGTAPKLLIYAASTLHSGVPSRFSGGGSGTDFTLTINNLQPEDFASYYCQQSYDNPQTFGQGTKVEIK — what was its Trimeric HA Binding RLU?
19300

Sample TCN-528 (5087_P17) (antibody, V domains shown) VH: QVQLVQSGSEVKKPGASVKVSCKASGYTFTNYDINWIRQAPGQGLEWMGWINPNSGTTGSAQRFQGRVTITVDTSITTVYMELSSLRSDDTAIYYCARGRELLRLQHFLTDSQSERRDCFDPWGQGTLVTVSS VL: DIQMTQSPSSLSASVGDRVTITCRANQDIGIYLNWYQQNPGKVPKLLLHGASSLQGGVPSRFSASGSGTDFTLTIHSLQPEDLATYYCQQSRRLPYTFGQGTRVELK — what was its Trimeric HA Binding RLU?
28400
